target: NUAK1 (Homo sapiens, UniProt O60285); assay: Kinase activity assay, P81 filter paper binding hot-spot technique (33P-ATP, CHKtide substrate); assay type: biochemical; conditions: final concentration of NUAK1 10 nM; 20 µM CHKtide substrate; 33P-labeled ATP; 2 hours at room temperature; read-out: IC50 (nM) of Test Compounds against NUAK1
Sequence (O60285 whole entry): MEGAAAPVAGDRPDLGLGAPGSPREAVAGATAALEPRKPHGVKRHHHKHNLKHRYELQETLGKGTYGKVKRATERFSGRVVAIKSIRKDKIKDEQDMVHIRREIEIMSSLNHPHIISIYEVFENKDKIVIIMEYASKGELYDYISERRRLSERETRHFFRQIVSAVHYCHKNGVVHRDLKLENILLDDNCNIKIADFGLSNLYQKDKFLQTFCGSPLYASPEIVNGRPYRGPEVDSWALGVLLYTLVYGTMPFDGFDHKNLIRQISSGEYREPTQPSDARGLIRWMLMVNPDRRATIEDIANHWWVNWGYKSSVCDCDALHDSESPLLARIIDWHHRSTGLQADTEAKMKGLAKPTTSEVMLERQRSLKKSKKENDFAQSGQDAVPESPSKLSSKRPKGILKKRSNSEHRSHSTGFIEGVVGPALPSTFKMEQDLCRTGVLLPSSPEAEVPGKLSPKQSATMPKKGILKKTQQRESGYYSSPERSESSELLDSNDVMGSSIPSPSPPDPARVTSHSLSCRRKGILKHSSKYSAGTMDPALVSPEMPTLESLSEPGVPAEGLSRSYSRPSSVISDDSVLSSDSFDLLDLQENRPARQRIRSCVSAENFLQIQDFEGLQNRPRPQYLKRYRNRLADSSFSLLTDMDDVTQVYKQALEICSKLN
Recorded IC50 by entry
Answer with a number only, understood to be in nM.

Worked set:
[[record]]
compound = "COc1cc(C2CCN(C)CC2)ccc1Nc1nccc(-n2ccc(C(=O)NCC#N)c2)n1"
tgt = "NUAK1 (Homo sapiens, UniProt O60285)"
value_type = "IC50"
value = 607

[[record]]
compound = "COc1cc(C2CCNCC2)ccc1Nc1nccc(-n2ccc(C(=O)NCC#N)c2)n1"
tgt = "NUAK1 (Homo sapiens, UniProt O60285)"
value_type = "IC50"
value = 977

[[record]]
compound = "N#CCNC(=O)c1ccn(-c2ccnc(Nc3ccc(C4CCNCC4)cc3)n2)c1"
tgt = "NUAK1 (Homo sapiens, UniProt O60285)"
value_type = "IC50"
value = 58

[[record]]
compound = "N#CCNC(=O)c1cnn(-c2ccnc(Nc3cnn(C4CCNCC4)c3)n2)c1"
tgt = "NUAK1 (Homo sapiens, UniProt O60285)"
value_type = "IC50"
value = 305

[[record]]
compound = "CN1CCN(c2ccc(Nc3ncc(Cl)c(-n4ccc(C(=O)NCC5CC5)c4)n3)cc2)CC1"
tgt = "NUAK1 (Homo sapiens, UniProt O60285)"
value_type = "IC50"
value = 9


Name the recorded IC50 of the item `CCCS(=O)(=O)Nc1cnn(-c2nc(Nc3cnn(C4CCNCC4)c3)ncc2Cl)c1` in your answer. 9

Name the recorded IC50 of the item CCS(=O)(=O)N1CCC(n2cc(-c3ccnc(Nc4cnn(C5CCNCC5)c4)n3)cn2)C1 (centres unmarked) in your answer. 122

Name the recorded IC50 of the item `O=C(Nc1cnn(-c2ccnc(Nc3cnn(C4CCNCC4)c3)n2)c1)[C@@H]1CC1(F)F` in your answer. 337

Name the recorded IC50 of the item `CN1CCC(n2cc(Nc3nccc(-c4cnn(C(=O)C5CC5)c4)n3)cn2)CC1` in your answer. 209

Name the recorded IC50 of the item `CNC(=O)c1ccn(-c2nc(Nc3ccc(N4CCN(C)CC4)cc3)ncc2Cl)c1` in your answer. 14

Reference source for all entries: patent EP4745131A1
